Data provenance: patent US11820766B2

Biological target: human MGL from HeLa cells (Homo sapiens)
Construct: combining endogenously expressed MGL from HeLa cells with test compounds; endogenous in cells; host or cells: HeLa cells / cell homogenates
Sequence (Q99685 whole entry): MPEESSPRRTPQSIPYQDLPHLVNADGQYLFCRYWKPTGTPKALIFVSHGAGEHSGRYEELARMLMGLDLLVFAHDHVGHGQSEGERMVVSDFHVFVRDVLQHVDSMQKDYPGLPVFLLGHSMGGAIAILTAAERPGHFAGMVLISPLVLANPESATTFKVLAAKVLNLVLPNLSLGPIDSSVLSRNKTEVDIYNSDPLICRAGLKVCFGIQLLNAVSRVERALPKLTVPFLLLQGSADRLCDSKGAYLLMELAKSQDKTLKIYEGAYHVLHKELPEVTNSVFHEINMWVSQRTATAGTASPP
Experiment: In vitro MGL activity assay: [glycerol-1,3-3H]-oleyl glycerol cleavage by MGL from HeLa cells
Format: biochemical
Settings: 300 nM [Glycerol-1,3-3H]-oleyl glycerol, one hour
measurement-label: IC50 (µM)

In [3]: df
Out[3]:
                                   compound  measurement_label  unit_info  experimental_value
0  C[C@H]1c2nn(C)c(-c3cc(F)c(F)c(F)c3)c2CCN1C(=O)c1cnc2c(c1)CCCO2               IC50         µM               0.329

[A] C[C@H]1c2nn(C)c(-c3cc(F)c(F)c(F)c3)c2CCN1C(=O)c1cccc2cnccc12
[B] CC1CC1c1c(C(=O)N2CCc3c(nn(C)c3-c3cc(F)c(F)c(F)c3)[C@@H]2C)cnn1C (stereo partly drawn)
Request: IC50 comparison. Which is larger, A or B ? Lab note: record the label of whichever item you select.
Response: B

[a] Cc1nc2cc(F)ccn2c1C(=O)N1CCc2c(nn(C)c2-c2cc(F)c(F)c(F)c2)[C@@H]1C
[b] Cc1cc(C(=O)N2CCc3c(nn(C)c3-c3cc(F)c(F)c(F)c3)[C@@H]2C)n2ncnc2n1
Request: Given a and b , report the one with the higher recorded IC50. Indicate your choice by writing its label.
Response: b

[a] Cc1nn(C)cc1C(=O)N1CCc2c(nn(C)c2-c2cc(F)c(F)c(F)c2)[C@@H]1C
[b] C[C@H]1c2nn(C)c(-c3cc(F)c(F)c(F)c3)c2CCN1C(=O)c1c(F)cccc1-n1cccn1
[c] COc1cc(Cl)cc(-c2c3c(nn2C)[C@H](C)N(C(=O)c2ccc4ncccc4c2)CC3)c1
[d] C[C@H]1c2nn(C)c(-c3cc(F)c(F)c(F)c3)c2CCN1C(=O)c1nc(C2CC2)n2ccccc12
[e] Cc1nc(C(=O)N2CCc3c(nn(C)c3-c3cc(F)c(F)c(F)c3)[C@@H]2C)c2cnn(C)c2n1
Request: Give the ascending ranking of the items by reported IC50. Present the labels in the sequence the task asks for.
Response: d, c, e, b, a
(d: 0.00666 µM, c: 0.0105 µM, e: 0.0324 µM, b: 0.114 µM, a: 0.308 µM)

[1] COc1nccc(C(=O)N2CCc3c(nn(C)c3-c3cccc(C(C)(F)F)c3)[C@@H]2C)c1C
[2] C[C@H]1c2nn(C)c(-c3cc(F)c(F)c(F)c3)c2CCN1C(=O)c1ccc2nccn2c1
[3] Cc1nn(C)c2nccc(C(=O)N3CCc4c(nn(C)c4-c4cc(F)c(F)c(F)c4)[C@@H]3C)c12
[4] C[C@H]1c2nn(C)c(-c3cc(F)c(F)c(F)c3)c2CCN1C(=O)c1ccc(F)c2[nH]ccc12
Request: Could you please sort these 4 entries by IC50 from high to low? Provide your answer as the labels ordered per the instruction.
Response: 1, 2, 3, 4

[1] C[C@H]1c2nn(C)c(-c3cc(F)c(F)c(F)c3)c2CCN1C(=O)c1cccc2c1CCNC2
[2] COc1ccc2c(C(=O)N3CCc4c(nn(C)c4-c4cc(F)c(F)c(F)c4)[C@@H]3C)cnn2c1
[3] C[C@H]1c2nn(C)c(-c3cc(F)c(F)c(F)c3)c2CCN1C(=O)c1ncnc2nc[nH]c12
[4] C[C@@H]1c2nn(-c3ccccc3)c(-c3ccccc3)c2CCN1C(=O)c1cnn(C)c1C1CC1
[5] C[C@H]1c2nn(C)c(-c3cccc4occc34)c2CCN1C(=O)c1ccc2ncccc2c1
Request: Rank items: key IC50, increasing. Give the labels in the order specified.
Response: 5, 2, 1, 4, 3
(5: 0.0181 µM, 2: 0.0607 µM, 1: 0.33 µM, 4: 1.08 µM, 3: 3.35 µM)

[a] C[C@H]1c2nn(C)c(-c3cc(F)c(F)c(F)c3)c2CCN1C(=O)c1c(C(F)F)nc2n1CCCC2
[b] Cc1cn(C)c2ncnc(C(=O)N3CCc4c(nn(C)c4-c4cc(F)c(F)c(F)c4)[C@@H]3C)c12
Request: Between a and b , which one has the lower reported IC50 value? Pick one and reply with its label.
Response: b

[1] C[C@H]1c2nn(C)c(-c3cc(F)c(F)c(F)c3)c2CCN1C(=O)c1ccnc2[nH]cc(F)c12
[2] C[C@H]1c2nn(C)c(-c3cc(F)c(F)c(F)c3)c2CCN1C(=O)c1cccc2c1OCC(=O)N2C
[3] C[C@H]1c2nn(C)c(-c3cc(F)c(F)c(F)c3)c2CCN1C(=O)c1cnn2c1NCCC2C(F)(F)F (stereo partly drawn)
[4] C[C@H]1c2nn(C)c(-c3cc(F)c(F)c(F)c3)c2CCN1C(=O)c1ccc2[nH]c(=O)oc2c1
[5] Cc1ccccc1-c1c2c(nn1C)[C@H](C)N(C(=O)c1ccc3ncccc3c1)CC2
Request: Give the ascending ranking of the items by reported IC50. Give your ranking as a list of the labels in the requested order.
Response: 1, 2, 4, 5, 3
(1: 0.0011 µM, 2: 0.00418 µM, 4: 0.0113 µM, 5: 0.22 µM, 3: 1.8 µM)

[P] C[C@H]1c2nn(C)c(-c3cc(F)c(F)c(F)c3)c2CCN1C(=O)c1cc2n(n1)CCCO2
[Q] Cc1cc(F)cc(-c2c3c(nn2C)[C@H](C)N(C(=O)c2c(C)nc4ccccn24)CC3)c1
[R] C[C@H]1c2nn(C)c(-c3cc(F)c(F)c(F)c3)c2CCN1C(=O)c1c[nH]c2c(F)cccc12
[S] C[C@H]1c2nn(C)c(-c3cc(F)c(F)c(F)c3)c2CCN1C(=O)c1n[nH]c2ccc(F)cc12
Request: Put the items in sequence by IC50, from largest down. To answer, arrange all of the labels according to the requested order.
Response: P, R, S, Q
(P: 0.285 µM, R: 0.031 µM, S: 0.0203 µM, Q: 0.00504 µM)
